This section presents compounds with their documented Emax values.
target: Neuromedin-U receptor 2 (Homo sapiens); assay: Agonist activity at human NMUR2 expressed in HEK293 cells assessed as induction of IP3 levels at 10^-5 M using myo-[2-3H(N)]-inositol after 60 mins by SPA-based topcount assay relative to NMU-8; format: functional, cell-based
Square brackets hold non-standard residues; d marks the D form. Peptide text beside a SMILES is read from it. N(4-hydroxyphenethyl)Gly = O=C(O)CNCCc1ccc(O)cc1; 2Nal = N[C@@H](Cc1ccc2ccccc2c1)C(=O)O; Gly(NCH2CH2Ph) = O=C(O)CNCCc1ccccc1
Reply numerically in %, unit not repeated.

CC(C)C[C@H](NC(=O)CCC1CCCCC1)C(=O)N[C@@H](CC(C)C)C(=O)N[C@@H](CN)C(=O)N1CCC[C@@H]1C(=O)N[C@@H](CCCNC(=N)N)C(=O)N[C@@H](CC(N)=O)C(N)=O    100
CC(=O)N[C@@H](Cc1ccc(O)cc1)C(=O)N[C@@H](Cc1ccccc1)C(=O)N[C@@H](CC(C)C)C(=O)N(CCc1ccc(O)cc1)CC(=O)N[C@@H](CCCNC(=N)N)C(=O)N1CCC[C@H]1C(=O)N[C@@H](CCCNC(=N)N)C(=O)N[C@@H](CC(N)=O)C(N)=O (Ac-YFL[N(4-hydroxyphenethyl)Gly]RPRN-NH2)    80.7
CC(=O)N[C@@H](Cc1ccc2ccccc2c1)C(=O)N[C@@H](Cc1ccccc1)C(=O)N[C@@H](CC(C)C)C(=O)N[C@@H](Cc1ccccc1)C(=O)N[C@@H](CCCNC(=N)N)C(=O)N1CCC[C@H]1C(=O)N[C@@H](CCCNC(=N)N)C(=O)N[C@@H](CC(N)=O)C(N)=O (Ac-[2Nal]FLFRPRN-NH2)    83.9

Pending compound:
Would you please give the reported Emax of CC(=O)N[C@@H](Cc1ccc(O)cc1)C(=O)N[C@@H](Cc1ccccc1)C(=O)N[C@@H](CC(C)C)C(=O)N(CCc1ccccc1)CC(=O)N[C@@H](CCCNC(=N)N)C(=O)N1CCC[C@H]1C(=O)N[C@@H](CCCNC(=N)N)C(=O)N[C@@H](CC(N)=O)C(N)=O (Ac-YFL[Gly(NCH2CH2Ph)]RPRN-NH2) with Neuromedin-U receptor 2 (Homo sapiens)?
99.9

* * *

This section presents molecules with their documented Emax values.
molecular target: Neuromedin-U receptor 2 (Homo sapiens, UniProt Q9GZQ4); test: Agonist activity at human NMUR2 expressed in HEK293 cells assessed as induction of IP3 levels at 10^-5 M using myo-[2-3H(N)]-inositol after 60 mins by SPA-based topcount assay relative to NMU-8; type: functional, cell-based
Sequence (Q9GZQ4 whole entry): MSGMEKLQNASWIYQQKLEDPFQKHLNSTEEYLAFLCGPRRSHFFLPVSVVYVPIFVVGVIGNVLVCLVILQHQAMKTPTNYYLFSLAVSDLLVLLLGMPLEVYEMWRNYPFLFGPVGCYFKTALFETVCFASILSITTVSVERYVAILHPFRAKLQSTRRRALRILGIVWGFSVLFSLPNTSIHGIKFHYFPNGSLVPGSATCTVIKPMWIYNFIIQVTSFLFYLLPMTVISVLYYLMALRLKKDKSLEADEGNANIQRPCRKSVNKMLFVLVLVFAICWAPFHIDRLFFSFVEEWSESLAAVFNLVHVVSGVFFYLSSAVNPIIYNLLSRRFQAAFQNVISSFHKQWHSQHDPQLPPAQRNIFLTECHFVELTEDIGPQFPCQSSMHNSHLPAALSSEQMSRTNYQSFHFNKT
Square brackets hold non-standard residues; d marks the D form. Peptide text beside a SMILES is read from it. Tic(7-OH) = O=C(O)[C@@H]1Cc2ccc(O)cc2CN1; 1Nal = N[C@@H](Cc1cccc2ccccc12)C(=O)O; 2Nal = N[C@@H](Cc1ccc2ccccc2c1)C(=O)O; Tic = O=C(O)[C@@H]1Cc2ccccc2CN1
Reply numerically in %, unit not repeated.

CC(C)C[C@H](NC(=O)[C@H](Cc1ccccc1)NC(=O)[C@@H](N)Cc1ccc(O)cc1)C(=O)N[C@@H](Cc1ccccc1)C(=O)N[C@@H](CCCNC(=N)N)C(=O)N1Cc2ccccc2C[C@H]1C(=O)N[C@@H](CCCNC(=N)N)C(=O)N[C@@H](CC(N)=O)C(N)=O (H-YFLFR[Tic]RN-NH2)    99.3
Cc1cc(O)cc(C)c1C[C@H](N)C(=O)N[C@@H](Cc1ccccc1)C(=O)N[C@@H](CC(C)C)C(=O)N[C@@H](Cc1ccccc1)C(=O)N[C@@H](CCCNC(=N)N)C(=O)N1CCC[C@H]1C(=O)N[C@@H](CCCNC(=N)N)C(=O)N[C@@H](CC(N)=O)C(N)=O    101

Return value of Emax for input CC(=O)N1Cc2cc(O)ccc2C[C@H]1C(=O)N[C@@H](Cc1ccccc1)C(=O)N[C@@H](CC(C)C)C(=O)N[C@@H](Cc1ccccc1)C(=O)N[C@@H](CCCNC(=N)N)C(=O)N1CCC[C@H]1C(=O)N[C@@H](CCCNC(=N)N)C(=O)N[C@@H](CC(N)=O)C(N)=O (Ac-[Tic(7-OH)]FLFRPRN-NH2) , no commentary.
116

Return value of Emax for input CC(C)C[C@H](NC(=O)[C@H](Cc1ccccc1)NC(=O)[C@@H](N)Cc1ccc(O)cc1)C(=O)N[C@@H](Cc1ccc2ccccc2c1)C(=O)N[C@@H](CCCNC(=N)N)C(=O)N1CCC[C@H]1C(=O)N[C@@H](CCCNC(=N)N)C(=O)N[C@@H](CC(N)=O)C(N)=O (H-YFL[2Nal]RPRN-NH2) , no commentary.
105

Return value of Emax for input CC(C)C[C@H](NC(=O)[C@H](Cc1ccccc1)NC(=O)[C@@H](N)Cc1ccc(O)cc1)C(=O)N[C@@H](Cc1cccc2ccccc12)C(=O)N[C@@H](CCCNC(=N)N)C(=O)N1CCC[C@H]1C(=O)N[C@@H](CCCNC(=N)N)C(=O)N[C@@H](CC(N)=O)C(N)=O (H-YFL[1Nal]RPRN-NH2) , no commentary.
110
